molecular target: human recombinant COX-2 (Homo sapiens); assay: COX-2; format: biochemical
Sequence (P35354 18-604): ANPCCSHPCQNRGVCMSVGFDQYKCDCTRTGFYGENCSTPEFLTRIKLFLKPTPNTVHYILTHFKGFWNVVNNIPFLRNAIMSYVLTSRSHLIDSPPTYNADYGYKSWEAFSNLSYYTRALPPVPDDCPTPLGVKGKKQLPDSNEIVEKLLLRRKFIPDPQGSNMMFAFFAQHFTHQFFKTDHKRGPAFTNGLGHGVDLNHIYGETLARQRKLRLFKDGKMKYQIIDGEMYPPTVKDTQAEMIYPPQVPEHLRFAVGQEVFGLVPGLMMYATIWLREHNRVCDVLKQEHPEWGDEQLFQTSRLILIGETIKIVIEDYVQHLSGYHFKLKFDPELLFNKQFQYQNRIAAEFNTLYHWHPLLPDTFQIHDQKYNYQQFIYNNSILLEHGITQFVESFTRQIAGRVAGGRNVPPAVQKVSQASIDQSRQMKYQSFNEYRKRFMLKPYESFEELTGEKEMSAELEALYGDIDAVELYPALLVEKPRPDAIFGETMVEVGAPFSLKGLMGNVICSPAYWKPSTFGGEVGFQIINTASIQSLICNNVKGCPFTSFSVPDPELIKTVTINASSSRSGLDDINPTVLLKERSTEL
Kindly supply the reported IC50 values for the records listed here.
Answers are plain numbers, in µM.

Provide each entry's IC50 from the list below.
1. O=C(c1ccc(C(F)(F)F)cc1)C1C(c2cc3ccccc3o2)C2CSCN2[C@@]12C(=O)Nc1ccc(Cl)cc12 (stereo partly shown) [Compound 5l]
2. O=C(c1ccc(Br)cc1)C1C(c2cc3ccccc3o2)C2CSCN2[C@@]12C(=O)Nc1ccc(Cl)cc12 (stereo partly shown) [Compound 5i]
3. O=C(c1ccc(Cl)cc1)C1C(c2cc3ccccc3o2)C2CSCN2[C@@]12C(=O)Nc1ccc(Cl)cc12 (stereo partly shown) [Compound 5p]
4. O=C(c1ccc(Br)cc1)C1C(c2cc3ccccc3o2)C2CSCN2[C@@]12C(=O)Nc1ccc(Br)cc12 (stereo partly shown) [Compound 5h]
5. O=C(c1ccccc1)C1C(c2cc3ccccc3o2)C2CSCN2[C@@]12C(=O)Nc1ccc(Cl)cc12 (stereo partly shown) [Compound 5a]

[A]
58.8
71.2
85.7
84.7
88.1

[Q] // query IC50 value for entry O=C(c1ccc(F)cc1)C1C(c2cc3ccccc3o2)C2CSCN2[C@@]12C(=O)Nc1ccc(Cl)cc12 (stereo partly shown) [Compound 5c]
[A] 76.2
